Study target: P. falciparum apicoplast DNA polymerase (Pf-apPOL) (Plasmodium falciparum)
Sequence (Q8ILY1 entry or part of it): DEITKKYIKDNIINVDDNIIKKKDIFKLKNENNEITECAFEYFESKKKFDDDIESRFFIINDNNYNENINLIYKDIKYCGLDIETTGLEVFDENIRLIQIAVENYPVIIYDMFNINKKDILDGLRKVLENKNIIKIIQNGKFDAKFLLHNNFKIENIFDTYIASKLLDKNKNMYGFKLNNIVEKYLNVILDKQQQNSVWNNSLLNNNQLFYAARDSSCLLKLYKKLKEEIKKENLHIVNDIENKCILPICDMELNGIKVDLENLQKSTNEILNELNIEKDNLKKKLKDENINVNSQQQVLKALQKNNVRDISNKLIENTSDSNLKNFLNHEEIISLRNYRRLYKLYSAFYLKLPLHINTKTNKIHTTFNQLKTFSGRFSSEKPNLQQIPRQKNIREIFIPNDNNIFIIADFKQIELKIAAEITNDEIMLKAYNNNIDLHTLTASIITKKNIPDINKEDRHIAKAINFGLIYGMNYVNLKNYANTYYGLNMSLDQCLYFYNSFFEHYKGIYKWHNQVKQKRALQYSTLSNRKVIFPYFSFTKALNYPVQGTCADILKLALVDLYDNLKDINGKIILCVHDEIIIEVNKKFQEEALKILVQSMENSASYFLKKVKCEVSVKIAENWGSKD
Method: Fluorescence-based high-throughput DNA polymerase assay (molecular beacon), primary screen and dose-response;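 also: test concentration in µM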
Type: biochemical
Experimental setup: DRC-2; 90'; concentration 40
Quantity kind: % inhibition ApPOL 90' (%)
Just the number please, in %, no unit attached.

Use these answered entries as a reference point.
{"Molecule": "NS(=O)(=O)c1ccc(NC(=O)c2ccc(N3C(=O)CCC3=O)cc2)cc1", "Quantity kind": "% inhibition ApPOL 90'", "Assay value": 68}
{"Molecule": "O=C1CSC2=NC3=C(CCc4ccccc43)C(c3cccs3)N12 (centres unmarked)", "Quantity kind": "% inhibition ApPOL 90'", "Assay value": 45}
{"Molecule": "CC(NC(=O)Cc1cc(=O)[nH]c(SCc2cccc(Cl)c2)n1)c1ccccc1 (centres unmarked)", "Quantity kind": "% inhibition ApPOL 90'", "Assay value": 54}
{"Molecule": "Cc1ccc(CNC(=O)c2cnn3c(O)cc(CSc4ccc(Cl)cc4)nc23)cc1", "Quantity kind": "% inhibition ApPOL 90'", "Assay value": 80}
{"Molecule": "O=C(O)CCS(=O)(=O)c1ccc(-c2ccc(S(=O)(=O)CCC(=O)O)cc2)cc1", "Quantity kind": "% inhibition ApPOL 90'", "Assay value": 52}
{"Molecule": "Cn1nc(-c2nnc(-c3ccccc3F)o2)c2c1CCN(C(=O)c1ccccc1Cl)C2", "Quantity kind": "% inhibition ApPOL 90'", "Assay value": 52}
{"Molecule": "COc1ccc(CNC(=O)Cn2nc3c(c2NC(=O)Cc2cccs2)CSC3)cc1", "Quantity kind": "% inhibition ApPOL 90'", "Assay value": 45}
{"Molecule": "Cc1cccc2c(C(=O)NC(C)C)cc(N(C)C)nc12", "Quantity kind": "% inhibition ApPOL 90'", "Assay value": 64}

Task item: Please provide the recorded % inhibition ApPOL 90' for COc1cccc(Oc2c(C(F)(F)F)oc3cc(OC(=O)N(C)C)ccc3c2=O)c1 , tested on P. falciparum apicoplast DNA polymerase (Pf-apPOL) (Plasmodium falciparum).
Reply: 51

Task item: Please provide the recorded % inhibition ApPOL 90' for Cc1cc(C)cc(-n2nc3c(c2NC(=O)c2ccco2)CSC3)c1 , tested on P. falciparum apicoplast DNA polymerase (Pf-apPOL) (Plasmodium falciparum).
Reply: 71

Task item: Please provide the recorded % inhibition ApPOL 90' for COc1cccc(C(=O)N2CCc3c(nc4cc(-c5ccccc5)[nH]n4c3=O)C2)c1OC , tested on P. falciparum apicoplast DNA polymerase (Pf-apPOL) (Plasmodium falciparum).
Reply: 70

Task item: Please provide the recorded % inhibition ApPOL 90' for COc1ccc(C)cc1NC(=O)Cn1ccc2c(=O)[nH]ccc21 [Molecule 15, COc1ccc(cc1NC(=O)Cn1ccc2c1cc[nH]c2=O)C] , tested on P. falciparum apicoplast DNA polymerase (Pf-apPOL) (Plasmodium falciparum).
Reply: 66

Task item: Please provide the recorded % inhibition ApPOL 90' for O=C1NCCCn2cc(S(=O)(=O)Nc3ccccc3)cc21 , tested on P. falciparum apicoplast DNA polymerase (Pf-apPOL) (Plasmodium falciparum).
Reply: 66

Task item: Please provide the recorded % inhibition ApPOL 90' for COc1ccc(NC(=O)Cn2ccc3c(=O)[nH]ccc32)cc1Cl [Molecule 10, COc1ccc(cc1Cl)NC(=O)Cn1ccc2c1cc[nH]c2=O] , tested on P. falciparum apicoplast DNA polymerase (Pf-apPOL) (Plasmodium falciparum).
Reply: 68

Task item: Please provide the recorded % inhibition ApPOL 90' for Cc1ccc2c(C(=O)NCCc3cccnc3)cc(NC(=O)C(C)C)cc2n1 , tested on P. falciparum apicoplast DNA polymerase (Pf-apPOL) (Plasmodium falciparum).
Reply: 63

Task item: Please provide the recorded % inhibition ApPOL 90' for O=[N+]([O-])c1ccc(/C=C/c2ccc3ccccc3n2)o1 , tested on P. falciparum apicoplast DNA polymerase (Pf-apPOL) (Plasmodium falciparum).
Reply: 62

Task item: Please provide the recorded % inhibition ApPOL 90' for O=C(Nc1cccc(C(=O)Nc2ccc(S(=O)(=O)[O-])c3cc(S(=O)(=O)[O-])cc(S(=O)(=O)[O-])c23)c1)Nc1cccc(C(=O)Nc2ccc(S(=O)(=O)[O-])c3cc(S(=O)(=O)[O-])cc(S(=O)(=O)[O-])c23)c1.[Na+].[Na+].[Na+].[Na+].[Na+].[Na+] , tested on P. falciparum apicoplast DNA polymerase (Pf-apPOL) (Plasmodium falciparum).
Reply: 78

Task item: Please provide the recorded % inhibition ApPOL 90' for Cc1ccc(NC(=O)Cn2ccc3c(=O)[nH]ccc32)cc1F [Molecule 48, O=C(Cn1ccc2c1cc[nH]c2=O)Nc1ccc(c(c1)F)C] , tested on P. falciparum apicoplast DNA polymerase (Pf-apPOL) (Plasmodium falciparum).
Reply: 67

Task item: Please provide the recorded % inhibition ApPOL 90' for O=C(NNC(=O)c1ccc(Cl)cc1)C(=O)NNC(=O)c1ccc(Cl)cc1 , tested on P. falciparum apicoplast DNA polymerase (Pf-apPOL) (Plasmodium falciparum).
Reply: 60

Task item: Please provide the recorded % inhibition ApPOL 90' for COc1cc(NC(=O)c2ccccc2)c(OC)cc1NC(=O)Cc1cccs1 , tested on P. falciparum apicoplast DNA polymerase (Pf-apPOL) (Plasmodium falciparum).
Reply: 66

Task item: Please provide the recorded % inhibition ApPOL 90' for CCCCOC(=O)CCCCCN1C(=O)C(=Cc2ccc(OC)cc2)SC1=S , tested on P. falciparum apicoplast DNA polymerase (Pf-apPOL) (Plasmodium falciparum).
Reply: 71

Task item: Please provide the recorded % inhibition ApPOL 90' for OC(C#Cc1ccccc1)c1ccco1 (centres unmarked) , tested on P. falciparum apicoplast DNA polymerase (Pf-apPOL) (Plasmodium falciparum).
Reply: 66

Task item: Please provide the recorded % inhibition ApPOL 90' for Cc1ccc(C)c(CSc2nc(C3CCCCC3)c(C#N)c(=O)[nH]2)c1 , tested on P. falciparum apicoplast DNA polymerase (Pf-apPOL) (Plasmodium falciparum).
Reply: 80
